Hey, just so you know, these numbers are from patent EP0389975A1.

- method description: Pharmacokinetics of physostigmine in rats after intravenous and intranasal administration
- experimental context: male, Lewis, rat, plasma, iv, 200 µg/kg
metric: bioavailability (%)
Use % as the unit, but write only the number.

What the record says about CNC(=O)Oc1ccc2c(c1)[C@]1(C)CCN(C)[C@@H]1N2C [physostigmine] : bioavailability is 97

###

- method description: Pharmacokinetics of physostigmine in rats after intravenous and intranasal administration
- experimental context: male, Lewis, rat, plasma, inhaled or intranasal, 200 ug/kg
metric: Cmax (ng/mL)
Use ng/mL as the unit, but write only the number.

What the record says about CNC(=O)Oc1ccc2c(c1)[C@]1(C)CCN(C)[C@@H]1N2C : Cmax is 86

###

- method description: Pharmacokinetics of arecoline in rats after intranasal and intramuscular administration
- Assay type: in vivo, Male Lewis rats
- experimental context: male, Lewis, rat, plasma, inhaled or intranasal, 2 mg/kg, Intranasal, 2 mg/kg Arecoline HBr, n=3 rats (Table 2)
- Method: The blood samples were collected into heparinized test tubes. […] Plasma was separated immediately and stored frozen. The analytical method of arecoline in plasma was performed by gas-chromatography-mass spectrometry (GC-MS) after solvent extraction using a method similar to that described in Beil, et al., Drug Develop Res, 9, 203-212 (1986). Nicotine was used as an internal standard. […]
metric: Tmax (min)
Use min as the unit, but write only the number.

What the record says about COC(=O)C1=CCCN(C)C1 : Tmax is 3

###

- method description: Pharmacokinetics of arecoline in rats after intranasal and intramuscular administration
- Assay type: in vivo, Male Lewis rats
- experimental context: male, Lewis, rat, plasma, im, 1 mg/kg; after i.m. administration
metric: half-life (min)
Use min as the unit, but write only the number.

What the record says about COC(=O)C1=CCCN(C)C1 [arecoline] : half-life is 5.4

###

- method description: Pharmacokinetics of physostigmine in rats after intravenous and intranasal administration
- experimental context: male, Lewis, rat, plasma, inhaled or intranasal, 200 ug/kg
metric: AUC (ng·h/mL)
Use ng·h/mL as the unit, but write only the number.

What the record says about CNC(=O)Oc1ccc2c(c1)[C@]1(C)CCN(C)[C@@H]1N2C : AUC is 38.9

###

- method description: Pharmacokinetics of arecoline in rats after intranasal and intramuscular administration
- Type: in vivo, Male Lewis rats
- experimental context: male, Lewis, rat, plasma, im; Intramuscular, 1 mg/kg Arecoline HBr, n=3 rats
metric: Cmax (ng/mL)
Use ng/mL as the unit, but write only the number.

What the record says about COC(=O)C1=CCCN(C)C1 : Cmax is 249

###

- method description: Pharmacokinetics of physostigmine in rats after intravenous and intranasal administration
- experimental context: male, Lewis, rat, plasma, inhaled or intranasal, 200 ug/kg
metric: half-life (min)
Use min as the unit, but write only the number.

What the record says about CNC(=O)Oc1ccc2c(c1)[C@]1(C)CCN(C)[C@@H]1N2C : half-life is 36

###

- method description: Pharmacokinetics of physostigmine in rats after intravenous and intranasal administration
- experimental context: male, Lewis, rat, plasma, inhaled or intranasal, 200 ug/kg
metric: Tmax (min)
Use min as the unit, but write only the number.

What the record says about CNC(=O)Oc1ccc2c(c1)[C@]1(C)CCN(C)[C@@H]1N2C [physostigmine] : Tmax is 6.5

###

- method description: Pharmacokinetics of arecoline in rats after intranasal and intramuscular administration
- Format: in vivo, Male Lewis rats
- experimental context: male, Lewis, rat, plasma, im, 1 mg/kg; after i.m. administration
metric: Tmax (min)
Use min as the unit, but write only the number.

What the record says about COC(=O)C1=CCCN(C)C1 : Tmax is 13.3
